# protocolDescription: Inhibition of BzATP-induced IL-1beta in rat primary microglia cells primed with LPS measured after repeated BzATP treatment by microplate reader
# Assay type: functional, tissue-based
testReadout: IC50 (nM)

1. O=C(NC[C@H](c1ccc(Cl)cc1)N1CCOCC1)c1sc(-c2ncccn2)nc1C(F)(F)F	38

---

# protocolDescription: Cmax in male rat at 3 mg/kg, po after 7 days
# Format: ADME, organism-based
# Parameters: dose 3 mg/kg, time 7 day, route po
# measurementContext: in vivo
testReadout: Cmax (µM)

1) O=C(NC[C@H](c1ccc(Cl)cc1)N1CCOCC1)c1sc(-c2ncccn2)nc1C(F)(F)F	4.64

---

# protocolDescription: Metabolic stability in human hepatocytes assessed as intrinsic clearance at 1 uM measured after 2 hrs
# Format: ADME, cell-based, Hepatocyte
# measurementContext: read-out: CLH (converted)
testReadout: CLint scaled at 1 µM (mL/min/kg)

1) O=C(NC[C@H](c1ccc(Cl)cc1)N1CCOCC1)c1sc(-c2ncccn2)nc1C(F)(F)F	14.2

---

# protocolDescription: Absolute oral bioavailability in rat at 2 mg/kg
# Type: ADME, organism-based
# measurementContext: in vivo
testReadout: bioavailability

1) O=C(NC[C@H](c1ccc(Cl)cc1)N1CCOCC1)c1sc(-c2ncccn2)nc1C(F)(F)F	≥ 100%

---

# protocolDescription: Cmax in rat at 2 mg/kg, po
# Assay type: ADME, organism-based
# Design: dose 2 mg/kg, route po
# measurementContext: in vivo
testReadout: Cmax (nM)

1) O=C(NC[C@H](c1ccc(Cl)cc1)N1CCOCC1)c1sc(-c2ncccn2)nc1C(F)(F)F	2700

---

# protocolDescription: Cmax in male rat at 150 mg/kg, po after 7 days
# Assay type: ADME, organism-based
# Parameters: dose 150 mg/kg, time 7 day, route po
# measurementContext: in vivo
testReadout: Cmax (µM)

1) O=C(NC[C@H](c1ccc(Cl)cc1)N1CCOCC1)c1sc(-c2ncccn2)nc1C(F)(F)F	39.6

---

# measuredTarget: P2X purinoceptor 7 (Rattus norvegicus, UniProt Q64663)
# Sequence (Q64663 whole entry): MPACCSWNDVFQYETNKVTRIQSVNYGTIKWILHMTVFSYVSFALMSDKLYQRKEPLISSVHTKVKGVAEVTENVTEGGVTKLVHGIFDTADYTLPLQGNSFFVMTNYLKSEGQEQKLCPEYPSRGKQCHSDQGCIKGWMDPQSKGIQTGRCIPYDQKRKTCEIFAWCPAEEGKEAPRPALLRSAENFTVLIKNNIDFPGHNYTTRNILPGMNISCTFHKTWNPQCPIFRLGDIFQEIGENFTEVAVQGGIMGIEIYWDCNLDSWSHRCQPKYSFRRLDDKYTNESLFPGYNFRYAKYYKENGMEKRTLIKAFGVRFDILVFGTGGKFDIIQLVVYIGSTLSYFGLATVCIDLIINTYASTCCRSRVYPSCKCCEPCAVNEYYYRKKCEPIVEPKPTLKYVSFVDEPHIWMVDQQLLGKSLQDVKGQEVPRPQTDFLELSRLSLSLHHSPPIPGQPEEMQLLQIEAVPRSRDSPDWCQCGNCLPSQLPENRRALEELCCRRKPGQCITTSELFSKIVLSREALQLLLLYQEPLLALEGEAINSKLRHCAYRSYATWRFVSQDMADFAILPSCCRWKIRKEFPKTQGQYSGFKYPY
# protocolDescription: Antagonist activity at rat P2X7 receptor expressed in HEK293 cells assessed as inhibition of BzATP-induced calcium-flux measured after 60 mins by FLIPR analysis
# Type: cell-based
testReadout: log10 IC50 (log10 of the value in nM)

1) O=C(NCC1(N2CCN(c3ccccc3)CC2)CCOCC1)c1cccnc1Sc1ccccc1	0.67
2) O=C(NCC12CC3CC(CC(C3)C1)C2)c1cc(CCCNCCCO)ccc1Cl [AZD9056]	0.64
3) O=C(Cc1cccc(C(F)(F)F)c1Cl)NC1COc2ncccc21 (configuration not stated)	2.41
4) Clc1cccc(-c2nnnn2Cc2cccnc2)c1Cl	2.96
5) O=C(NCC1(O)CCC(F)(F)CC1)c1cc(-c2ncc(F)cn2)ccc1Cl	3.74
6) C[C@H](N/C(=N/C#N)Nc1cccc2ncccc12)c1ccccc1	0.79
7) O=C(NC[C@H](c1ccc(Cl)cc1)N1CCOCC1)c1sc(-c2ncccn2)nc1C(F)(F)F	0.38
8) FC(F)(F)c1cccc(-c2nnnn2Cc2cccnc2)c1Cl	1.85
9) COC[C@H](O)Cn1c(=O)cnn(-c2ccc(Cl)c(C(=O)NCC3(O)CCCCCC3)c2)c1=O [CE-224535]	2.67
10) O=C(NC[C@@H](c1ccc(Cl)cc1)N1CCOCC1)c1sc(-c2ncccn2)nc1C(F)(F)F	1.98
11) CN1C(=O)CC[C@H]1C(=O)NCc1cccc(C(F)(F)F)c1Cl [GSK1482160]	3.28
12) O=C(NCC1CCCCCC1)c1cn(CCO)c2ccccc12	3.18

---

# protocolDescription: AUC (0 to 8 hrs) in female mouse at 100 mg/kg, po administered as single dose
# measurementContext: in vivo
testReadout: AUC(0-t) at 8 h (µM·h)

1. O=C(NC[C@H](c1ccc(Cl)cc1)N1CCOCC1)c1sc(-c2ncccn2)nc1C(F)(F)F	399

---

# protocolDescription: in vitro
# measurementContext: rat, liver microsomes
testReadout: CLint scaled at 1 h, 1 µM (mL/min/kg)

1) O=C(NCC12CC3CC(CC(C3)C1)C2)c1cc(CCCNCCCO)ccc1Cl	43.3
2) C[C@H](N/C(=N/C#N)Nc1cccc2ncccc12)c1ccccc1	71.7
3) O=C(Cc1cccc(C(F)(F)F)c1Cl)NC1COc2ncccc21 (stereo unspecified)	85
4) O=C(NCC1(O)CCC(F)(F)CC1)c1cc(-c2ncc(F)cn2)ccc1Cl	53.3
5) Clc1cccc(-c2nnnn2Cc2cccnc2)c1Cl	767
6) O=C(NCC1(N2CCN(c3ccccc3)CC2)CCOCC1)c1cccnc1Sc1ccccc1	433
7) CN1C(=O)CC[C@H]1C(=O)NCc1cccc(C(F)(F)F)c1Cl	16.7
8) O=C(NCC1CCCCCC1)c1cn(CCO)c2ccccc12	533
9) CN1CCc2c(cccc2C(=O)NCC2(N3CCN(c4ccccc4)CC3)CCCCC2)C1	200
10) O=C(NC[C@H](c1ccc(Cl)cc1)N1CCOCC1)c1sc(-c2ncccn2)nc1C(F)(F)F	85
11) FC(F)(F)c1cccc(-c2nnnn2Cc2cccnc2)c1Cl	417

---

# Ki measurements, system: P2X purinoceptor 7 (Rattus norvegicus)
testReadout: Ki (nM)

1. O=C(NCC1(N2CCN(c3ccccc3)CC2)CCOCC1)c1cccnc1Sc1ccccc1	98
2. CN1C(=O)CC[C@H]1C(=O)NCc1cccc(C(F)(F)F)c1Cl	510
3. O=C(NCC1(O)CCC(F)(F)CC1)c1cc(-c2ncc(F)cn2)ccc1Cl	4800
4. FC(F)(F)c1cccc(-c2nnnn2Cc2cccnc2)c1Cl	16

---

# measuredTarget: hERG (KCNH2) (Homo sapiens)
# Sequence (Q12809 whole entry): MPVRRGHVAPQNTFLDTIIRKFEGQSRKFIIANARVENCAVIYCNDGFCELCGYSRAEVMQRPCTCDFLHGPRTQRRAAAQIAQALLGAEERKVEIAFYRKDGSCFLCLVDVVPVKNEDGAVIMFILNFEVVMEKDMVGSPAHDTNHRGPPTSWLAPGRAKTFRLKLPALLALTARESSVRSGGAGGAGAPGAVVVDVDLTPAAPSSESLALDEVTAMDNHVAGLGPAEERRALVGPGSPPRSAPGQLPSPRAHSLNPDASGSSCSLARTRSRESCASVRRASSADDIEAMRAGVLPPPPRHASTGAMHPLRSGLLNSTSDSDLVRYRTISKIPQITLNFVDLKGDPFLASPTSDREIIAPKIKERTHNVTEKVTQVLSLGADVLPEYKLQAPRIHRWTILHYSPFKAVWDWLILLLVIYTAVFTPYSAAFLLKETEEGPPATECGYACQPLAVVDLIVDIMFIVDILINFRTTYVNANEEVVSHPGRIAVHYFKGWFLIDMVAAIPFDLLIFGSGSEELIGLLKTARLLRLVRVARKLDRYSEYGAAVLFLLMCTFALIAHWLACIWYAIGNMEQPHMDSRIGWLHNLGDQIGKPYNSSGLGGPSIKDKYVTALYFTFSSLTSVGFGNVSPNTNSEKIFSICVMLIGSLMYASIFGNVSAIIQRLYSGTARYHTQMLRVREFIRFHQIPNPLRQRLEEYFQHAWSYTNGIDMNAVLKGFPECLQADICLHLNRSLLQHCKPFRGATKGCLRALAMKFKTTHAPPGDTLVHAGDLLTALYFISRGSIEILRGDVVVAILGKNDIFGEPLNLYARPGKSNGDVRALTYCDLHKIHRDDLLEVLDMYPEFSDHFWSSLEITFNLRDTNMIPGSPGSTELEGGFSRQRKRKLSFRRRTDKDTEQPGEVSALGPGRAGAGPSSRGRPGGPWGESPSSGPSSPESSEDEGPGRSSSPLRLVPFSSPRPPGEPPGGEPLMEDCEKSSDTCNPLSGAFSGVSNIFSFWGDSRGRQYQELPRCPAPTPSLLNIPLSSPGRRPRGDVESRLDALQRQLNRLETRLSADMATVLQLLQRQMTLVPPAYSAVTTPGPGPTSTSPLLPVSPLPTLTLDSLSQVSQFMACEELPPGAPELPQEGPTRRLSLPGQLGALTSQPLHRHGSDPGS
# protocolDescription: Inhibition of human ERG at 30 uM
testReadout: inhibition at 30 µM (%)

1) O=C(NC[C@H](c1ccc(Cl)cc1)N1CCOCC1)c1sc(-c2ncccn2)nc1C(F)(F)F	44

---

# protocolDescription: Tmax in female mouse at 100 mg/kg, po administered as single dose
# measurementContext: in vivo
testReadout: Tmax (h)

1. O=C(NC[C@H](c1ccc(Cl)cc1)N1CCOCC1)c1sc(-c2ncccn2)nc1C(F)(F)F	1

---

# protocolDescription: Apparent permeability across apical to basolateral side in MDCK-MDR1 cells by LC-MS/MS analysis
# measurementContext: dog
Please mark class 1 if the recorded Papp A:B is equal to or greater than 20 ×10⁻⁶ cm/s, and class 0 if it falls below.

1. O=C(NCC1CCCCCC1)c1cn(CCO)c2ccccc12	class 0
2. O=C(NC[C@H](c1ccc(Cl)cc1)N1CCOCC1)c1sc(-c2ncccn2)nc1C(F)(F)F	class 0
3. O=C(NCC1(N2CCN(c3ccccc3)CC2)CCOCC1)c1cccnc1Sc1ccccc1	class 0
4. COc1ccc(CC(=O)NC(N/C(=N/C#N)Nc2cccc3ncccc23)C(C)(C)C)cc1OC (configuration not stated)	class 0
5. FC(F)(F)c1cccc(-c2nnnn2Cc2cccnc2)c1Cl	class 1
6. COC[C@H](O)Cn1c(=O)cnn(-c2ccc(Cl)c(C(=O)NCC3(O)CCCCCC3)c2)c1=O	class 0
7. C[C@H](N/C(=N/C#N)Nc1cccc2ncccc12)c1ccccc1	class 0
8. O=C(NCC12CC3CC(CC(C3)C1)C2)c1cc(CCCNCCCO)ccc1Cl	class 0
9. O=C(NCC1(O)CCC(F)(F)CC1)c1cc(-c2ncc(F)cn2)ccc1Cl	class 0
10. O=C(Cc1cccc(C(F)(F)F)c1Cl)NC1COc2ncccc21 (configuration not stated)	class 1
11. CN1CCc2c(cccc2C(=O)NCC2(N3CCN(c4ccccc4)CC3)CCCCC2)C1	class 0

---

# protocolDescription: in vitro
# measurementContext: human, liver microsomes
Mark Met only when CLint scaled at 1 h, 1 µM stays strictly below 80 mL/min/kg. Values equal to the cut-off are Not met.

1) O=C(NCC1(O)CCC(F)(F)CC1)c1cc(-c2ncc(F)cn2)ccc1Cl	Met
2) O=C(NC[C@H](c1ccc(Cl)cc1)N1CCOCC1)c1sc(-c2ncccn2)nc1C(F)(F)F	Met
3) O=C(Cc1cccc(C(F)(F)F)c1Cl)NC1COc2ncccc21 (stereo not given)	Met
4) FC(F)(F)c1cccc(-c2nnnn2Cc2cccnc2)c1Cl	Met
5) O=C(NCC1CCCCCC1)c1cn(CCO)c2ccccc12	Not met

---

# protocolDescription: Cmax in female mouse at 100 mg/kg, po after 14 days
# measurementContext: in vivo
testReadout: Cmax (µM)

1. O=C(NC[C@H](c1ccc(Cl)cc1)N1CCOCC1)c1sc(-c2ncccn2)nc1C(F)(F)F	61.6

---

# protocolDescription: Efflux ratio of permeability across basolateral to apical side over apical to basolateral side in MDCK2-MDR1 cells
# Assay type: ADME, cell-based, Canis lupus familiaris
# measurementContext: dog, MDCK-MDR1
Response field label: string, one of Y (efflux ratio strictly below 1) or N.

1. O=C(Cc1cccc(C(F)(F)F)c1Cl)NC1COc2ncccc21 (stereo not drawn)	Y
2. O=C(NCC12CC3CC(CC(C3)C1)C2)c1cc(CCCNCCCO)ccc1Cl	N
3. FC(F)(F)c1cccc(-c2nnnn2Cc2cccnc2)c1Cl	Y
4. CN1CCc2c(cccc2C(=O)NCC2(N3CCN(c4ccccc4)CC3)CCCCC2)C1	N
5. O=C(NCC1(N2CCN(c3ccccc3)CC2)CCOCC1)c1cccnc1Sc1ccccc1	N
6. O=C(NCC1CCCCCC1)c1cn(CCO)c2ccccc12	Y
7. CN1C(=O)CC[C@H]1C(=O)NCc1cccc(C(F)(F)F)c1Cl	Y
8. O=C(NC[C@H](c1ccc(Cl)cc1)N1CCOCC1)c1sc(-c2ncccn2)nc1C(F)(F)F	Y
